# TESTED SYSTEM: Alpha-2 adrenergic receptor (Mus musculus) (UniProt P30545+Q01338+Q01337)
# TEST SUMMARY: Presynaptic alpha-2 adrenergic receptor agonistic activity in mouse vas deferens relative to clonidine
# Format: functional, tissue-based
PARAMETER: Agonist potency

Worked cases, answers included:
[
  {
    "COMPOUND": "Clc1cc(Cl)c2c(c1)CC(C1=NCCN1)O2 (stereo not given)",
    "RESULT": "< 0.0001"
  },
  {
    "COMPOUND": "Clc1ccc2c(c1Cl)OC(C1=NCCN1)C2 (stereo not given)",
    "RESULT": 0.03
  },
  {
    "COMPOUND": "Oc1ccc2c(c1)CC(C1=NCCN1)O2 (stereo not given)",
    "RESULT": 0.02
  },
  {
    "COMPOUND": "Brc1ccc2c(c1)CC(C1=NCCN1)O2 (stereo not given)",
    "RESULT": "< 0.001"
  },
  {
    "COMPOUND": "Cc1cccc2c1CC(C1=NCCN1)O2 (stereo not given)",
    "RESULT": 0.2
  },
  {
    "COMPOUND": "c1ccc2c(c1)CC(C1=NCCN1)S2 (stereo not given)",
    "RESULT": 0.001
  },
  {
    "COMPOUND": "Cc1ccc(C)c2c1CC(C1=NCCN1)O2 (stereo not given)",
    "RESULT": 0.14
  },
  {
    "COMPOUND": "Oc1ccc2c(c1)OC(C1=NCCN1)C2 (stereo not given)",
    "RESULT": 0.02
  }
]

Entry under review: c1ccc2oc(C3=NCCN3)cc2c1 . Reported Agonist potency? < 0.0003

And for CC1(C2=NCCN2)Cc2ccccc2O1 (stereo not given) ? 0.002
